- assay.system: human S1P1 receptor (Homo sapiens)
- Construct: membranes used
- Sequence (P21453 whole entry): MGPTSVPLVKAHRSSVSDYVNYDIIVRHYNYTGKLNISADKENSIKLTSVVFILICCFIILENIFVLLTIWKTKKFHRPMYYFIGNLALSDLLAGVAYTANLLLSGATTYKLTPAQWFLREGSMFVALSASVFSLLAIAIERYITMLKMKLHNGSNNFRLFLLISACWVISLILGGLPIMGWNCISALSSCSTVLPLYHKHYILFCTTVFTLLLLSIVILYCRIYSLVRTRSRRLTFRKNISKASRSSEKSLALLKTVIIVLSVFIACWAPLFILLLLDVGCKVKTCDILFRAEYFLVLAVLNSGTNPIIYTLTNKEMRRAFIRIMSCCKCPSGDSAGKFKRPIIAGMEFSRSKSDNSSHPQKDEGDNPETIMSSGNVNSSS
- assay: GTP γ35S binding assay for S1P1 activity
- study.conditions: membranes of cells stably expressing the S1P1 receptor; test compounds 0.08 to 5,000 nM; read-out: S1P1 GTPγ^35S EC50
experimental.endpoint: EC50 (nM)

[1] CC(C)Oc1ccc(-c2nc(-c3ccccc3-c3cccc(OCCCO)c3)no2)cc1C#N
[2] CC(C)Oc1ccc(-c2nc(-c3ccccc3-c3cccc(OCCCNCC(=O)O)c3)no2)cc1C#N
[3] O=C(O)CNCCCOc1cccc(-c2ccccc2-c2noc(-c3ccc(-c4cccc(F)c4)c(C(F)(F)F)c3)n2)c1
[in] # desc sort on EC50 across 3 compounds As an answer, provide the labels arranged in the order called for.
[out] 1, 3, 2
(1: 1420 nM, 3: 552 nM, 2: 82 nM)
